TEST_DESCRIPTION: calcein-AM signal in unstimulated myeloma cells – cell-based, calcein-AM fluorescence, 48 h, PK04 Diversity Set, profiling panel (AID 1166);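 further: cells grown under basal conditions without added stimulus; test concentration not given here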
SETUP_CONDITIONS: RPMI8226 myeloma viability, higher = more signal
MEASUREMENT_LABEL: z-score
Keep the answer to the number alone.

Examples from the recorded data:
COC(=O)[C@@]1(Cc2ccc(F)cc2)[C@H]2c3cc(C(=O)N(C)C)n(C)c3C[C@H]2CN1C(=O)c1ccccc1 | -0.119
COc1ccc([Si](C)(C)[C@@H]2[C@@H](CC(=O)N3Cc4ccccc4C[C@H]3CO)O[C@]3(C(=O)N(Cc4ccc(N5CCOC5=O)cc4)c4ccccc43)[C@H]2C)cc1 | -0.876
CCCc1cc2c(n1CCc1ccc(Cl)cc1)C(C)C1CN(C(=O)c3ccccc3)C(C)(C(=O)OC)C21 (configuration not stated) | -4.74

Fill in the blank: the reported z-score of `O=C1O[C@@H](c2ccccc2)[C@@H](c2ccccc2)N2[C@@H](c3ccc(OCCO)cc3)[C@]3(C(=O)Nc4ccc(C#CCCO)cc43)[C@@H](C(=O)O)[C@H]12` is ____.
0.926

Fill in the blank: the reported z-score of CCCCC(O)C1C=CC2C(=O)N(c3ccccc3)C(=O)C2N1Nc1ccc([N+](=O)[O-])cc1 (configuration not stated) is ____.
-0.438

Data credit: PubChem BioAssay
